target: T1, recombinant human CFD, His-tagged (human, UniProt P00746 26-253); assay: SPR MX96
T1 construct: also called rhCFD-His
T1 sequence (P00746 26-253 limits assumed): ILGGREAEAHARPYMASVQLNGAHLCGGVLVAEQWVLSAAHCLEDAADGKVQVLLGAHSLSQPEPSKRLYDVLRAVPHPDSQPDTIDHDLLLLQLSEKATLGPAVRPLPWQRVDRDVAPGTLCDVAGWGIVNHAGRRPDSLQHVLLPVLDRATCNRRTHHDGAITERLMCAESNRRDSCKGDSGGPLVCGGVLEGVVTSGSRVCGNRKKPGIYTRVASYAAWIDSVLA
Recorded Kd for the following binders
Value expressed in nM; do not type the unit.

[[record]]
binder = "KCD039 (antibody, V domains shown) VH: EVQLQQSGPEMVKPGASMKISCKASGYSFADYTLNWVKQSHGKSLEWIGLINPYNGGTSYNQKFMGKATLTVDKSSSTAYMELLSLTSEDSAVYYCTRWGTYSHNYDYAMDYWGQGTSVTVSS VL: DVVMTQTPLSLSVSLGDQASISCRSSQSLVHSNGNTYLYWYLQKPGQSPKLLIYKVSNRFSGITDRFSGSGSGTDFTLKISRVEAEDLGVYFCSQSTHVPPFTFGSGTKLEIK"
recorded_endpoint = "Kd"
measurement = 43


Lookup result for KCD017 (antibody, V domains shown) VH: DVQLQESGPDLVKPSQSLSLTCTVTDYSITSGYSWHWIRQFPGNKLEWLGYIHSSGNTNYNPSLKSRFSITRDTSKNQFFLQLNSVTSEDTATYYCALHYYGSSFGWYFDVWGAGTTVTVSS VL: DIVMTQSHKFMSTSVGDRVYITCKASQDVGTAVAWYQQTSGQSPKLLIYWASTRHTGVPDRFTGSGSGTDFTLTLSNVQSEDLADYFCQQYTSYPLTFGAGTKLELK ; measured Kd: 13

Lookup result for KCD208 (antibody, V domains shown, chimeric) VH: EVQLQQSVAELVRPGASVKLSCTVSGFNIKNTYMHWVKQRPEQGLEWIGRIDPANGDTTYAPKFQGKATITADTSSNSAYLHLSRLTSEDTAIYYCSLYDYDGYWGQGTTLTVSS VL: EIVLTQSPALMAASPGEKVTITCSVSSSISSSSLHWYRQKSGTSPKPWIYGTSHLASGVPVRFSGSGSGTSYSLTISSMEAEDAATYYCQQWDTYPWTFGGGTKLEIK ; measured Kd: 1.9
